From: patent US9850283B2

# target desc: LK35.2-hPD-L1 cells / PE-labeled PD-1-Ig (Homo sapiens)
# Construct: expressed in transfected cells; host or cells: LK35.2 mouse B cell line
# Sequence (Q9NZQ7 19-290): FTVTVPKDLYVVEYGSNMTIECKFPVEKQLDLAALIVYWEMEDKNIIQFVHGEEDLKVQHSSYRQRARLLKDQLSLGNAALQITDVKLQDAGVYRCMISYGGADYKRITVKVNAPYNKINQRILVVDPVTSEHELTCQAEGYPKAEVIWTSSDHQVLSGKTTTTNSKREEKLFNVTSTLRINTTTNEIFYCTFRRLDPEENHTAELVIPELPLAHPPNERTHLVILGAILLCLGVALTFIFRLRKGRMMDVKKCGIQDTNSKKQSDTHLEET
# procedure details: LK35.2-hPD-L1 cell binding high-content screening assay
# Type: cell-based
# run parameters: cluster symbol; cell line of CBA not given (LK35.2-hPD-L1 or 293T-hPD-L1); read-out: CBA IC50 cluster
pIC50: −log10 of the molar value. Positions of bridges follow the written chain, without caps; N, C: chain ends. Non-standard residues stand in square brackets, D forms with d. Residues, ends and D or L forms follow the SMILES beside them. Phe(4-CF3) = N[C@@H](Cc1ccc(C(F)(F)F)cc1)C(=O)O; NMeF = CN[C@@H](Cc1ccccc1)C(=O)O; NMeNle = CCCC[C@H](NC)C(=O)O; Sar = CNCC(=O)O
measurement label: pIC50

{"compound": "CCCC[C@H]1C(=O)N(C)CC(=O)N[C@@H](CC(=O)O)C(=O)N[C@@H](C(C)C)C(=O)N(C)[C@@H](Cc2ccccc2)C(=O)N[C@@H](Cc2ccc(O)cc2)C(=O)N(C)CC(=O)N[C@@H](Cc2c[nH]c3ccccc23)C(=O)N[C@@H](Cc2ccc(O)cc2)C(=O)N[C@@H](CC(C)C)C(=O)N[C@H](C(=O)NCC(N)=O)CSCC(=O)N[C@@H](Cc2ccc(C(F)(F)F)cc2)C(=O)N(C)[C@@H](Cc2ccccc2)C(=O)N1C [Example 3093] ({CH2CO}-[Phe(4-CF3)][NMeF][NMeNle][Sar]DV[NMeF]Y[Sar]WYLCG-NH2; thioether N-13)", "observed": "7.14 to 8.32"}
